- System: SF-539 CNS
- Assay Info: NCI tumour cell line growth inhibition, 48 h
Property Measured: TGI

Field: example entries. Status: answers known.
Compound	Recorded Value
CN1CCC2(CC1)SC[C@H]1C(=O)N(c3ccc(Cl)cc3)C(=O)N12	> 100 µM
COc1ccc(OC)c2sc(N3C(=O)/C(=C/c4ccc(Cl)cc4)N=C3c3ccccc3)nc12	> 100 µM
CNc1c2cccc(C)c2nc2c(C(=O)NCCN(C)C)cccc12	0.245 µM
O=c1[nH]n(Cc2ccccc2Cl)c2ccc([N+](=O)[O-])cc12	> 100 µM
COc1cc(Nc2nccc(Nc3ccc4c(C)[nH]nc4c3)n2)cc(OC)c1OC	6.11 µM
CC1(C)C2CCC3=C(CCC4(C)C5C[C@](C)(C(=O)O)CC[C@]5(C)CC[C@]34C)[C@@]2(C)CC[C@@H]1O (stereo partly specified)	> 100 µM

Each compound below has a recorded value; state its TGI.
1. COc1ccc2cc(CNCCCCCCCCCCCCNCc3ccc4cc(OC)ccc4c3)ccc2c1
2. COc1ccc(CN(C)c2ccc(CO)c(Cl)c2)cc1
3. COC(=O)c1c(O)ccc2c1c1c(n2Cc2ccccc2)C(=O)c2ccccc2C1=O
4. CC(C)(C#N)c1cc(Cn2cncn2)cc(C(C)(C)C#N)c1
5. Cc1ccc2c(c1)C(=O)/C(=N/Nc1ccc(Cl)cc1)CCO2

A.
1: 31.8 µM; 2: > 100 µM; 3: 29.1 µM; 4: > 10000 µM; 5: > 100 µM

====

Can you tell me TGI for the items I'm about to list?
- Tested on: NCI-H23 lung
- Assay Info: NCI tumour cell line growth inhibition, 48 h
Numbers only, in µM.

Field: example entries. Status: answers known.
Compound	TGI [µM]
COC(=O)c1cc2c(cc1Cl)SC(N(N(C)C)S(=O)(=O)c1ccc(Br)s1)=NS2(=O)=O	70.9
CCCCCCCCC[C@@H]1CC(=O)OCC2OC(O[C@H](CCCCCCCCC)CC(=O)OCC3OC(O[C@H](CCCCCCCCC)CC(=O)OCC4OC(O1)C(O)C(O)C4O)C(O)C(O)C3O)C(O)C(O)C2O (some centres not stated)	30.6

We next turn to a different compound, shown below.
Q. Request body: readout TGI, system NCI-H23 lung, query N#C/C(=C\c1cn(Cc2ccccc2)c2ccccc12)c1nn(-c2ccccc2)c(N)c1C#N . Return the value.
A. 29.7

====

- System: HCT-15 colon
- Assay Info: NCI tumour cell line growth inhibition, 48 h
Can you tell me TGI for the items I'm about to list?

Field: example entries. Status: answers known.
Molecule	Recorded Value
Nc1nc(Cl)c(N)c(NCC2(CO)CCC2)n1	> 100 µM
O=c1c(Oc2ccc(F)cc2F)cc2cnc(NC3CCOCC3)nc2n1C1CCS(=O)(=O)CC1	> 25 µM
Cc1ccc2nc(CN3CCCC(O)C3)cc(=O)n2c1 (stereo unspecified)	> 100 µM

Each molecule below has a recorded value; state its TGI.
1. Nc1nc(N)c2cc(Sc3ccc4nc(N)nc(N)c4c3)ccc2n1
2. O=S(=O)(N/N=C/c1ccc(/C=N/NS(=O)(=O)c2ccccc2)cc1)c1ccccc1
3. C=C1C(=O)OC2/C=C(\CO)C3OC3C3OC3(C)CC(OC(=O)/C(=C/C)CO)C12 (stereo unspecified)

A.
["> 100 µM", "> 100 µM", "> 100 µM"]

====

- Test system: HT29 colon
- Assay Info: NCI tumour cell line growth inhibition, 48 h
Where a SMILES comes first, the peptide text is derived from it. The star is where a group is joined. Boc = CC(C)(C)OC(=O)*; OBn = c1ccc(CO*)cc1
Property Measured: TGI

Compound	TGI
Cc1csc2nc3c(cnn3C)c(=S)n12	> 100 µM
N#CC(C#N)N=Cc1ccncc1	> 100 µM

Each compound below has a recorded value; state its TGI.
1. COc1c2nc(CCl)[nH]c(=O)c2c(OC)c2nc(CCl)[nH]c(=O)c12
2. O=C(c1ccccc1)c1ccc2nc3n(c2c1)C(c1c(F)cccc1F)SC3 (configuration not stated)
3. CC(C)C(NC(=O)C(Cc1ccccc1)NC(=O)OC(C)(C)C)C(=O)NCC(=O)OCc1ccccc1 (stereo not drawn) (Boc-Phe-Val-Gly-OBn; configuration not given here)
4. Cc1cc([C@H](C#N)c2nc3ccccc3[nH]2)nc(Cl)n1
5. O=S(=O)(NC1=NCCN1C(=S)SN1CCn2c1nsc2=S)c1ccc(Br)cc1
6. CC(=O)[O-].CC(=O)[O-].[Pt+2].c1cscn1.c1cscn1
7. CC(C)=CCCC(C)c1ccc(C)c2c1OCN(CC1CCNCC1)C2 (configuration not stated)

A.
> 100 µM
39.5 µM
38.5 µM
> 100 µM
> 100 µM
> 100 µM
8.38 µM

====

Can you tell me TGI for the items I'm about to list?
- System: HS 578T breast
- Assay Info: NCI tumour cell line growth inhibition, 48 h
Where a SMILES comes first, the peptide text is derived from it. [ ]: non-standard residue; d: D form. Ac5c = NC1(C(=O)O)CCCC1

Molecule	Target Or System	TGI
Cc1c(C)c2c(c(N)c1C#N)C(=O)N(CCc1ccccc1)C2=O	HS 578T breast	> 100 µM

Each molecule below has a recorded value; state its TGI.
1. O=C(Nc1cccc2ccccc12)Nn1cnnc1
2. CCN(CC)CC(O)CNc1ccc(NCC2CO2)c2c1C(=O)c1ccccc1C2=O (stereo not given)
3. O=C1C(=O)c2c(oc(=O)c3ccccc23)-c2ccccc21
4. CC[C@](O)(CC(=O)O[C@H]1C(=O)O[C@@H]2C[C@H]3C(C)=CC(=O)[C@@H](O)[C@]3(C)[C@H]3[C@@]4(O)OC[C@]32[C@@H]1[C@@H](C)[C@H]4O)C(C)C
5. O=C1CC(NC(=O)C(F)(F)F)c2c1csc2Br (stereo not given)
6. COC(=O)C(Cc1c[nH]c2ccccc12)N=C1Nc2ccncc2S(=O)(=O)N1c1ccccc1 (stereo not given)
7. NC1(C(=O)NC2(C(=O)O)CCCC2)CCCC1 (H-[Ac5c]-[Ac5c]-OH)

A.
> 100 µM
24.1 µM
> 25 µM
< 0.01 µM
> 100 µM
> 100 µM
> 100 µM

Each molecule below has a recorded value; state its TGI.
1. O=C(c1cc(Cl)cc(Cl)c1)N(C(=O)N1CCN(c2ccccc2)CC1)c1ccccc1
2. CC(C)=CCC[C@@H](C)C1=C(O)C(O)C(C)=C2N=C(c3ccccc3)C(=O)OC21 (stereo not given in full)

A.
1: > 100 µM; 2: 13.4 µM

Each molecule below has a recorded value; state its TGI.
1. COc1cc(/C=C(\C#N)c2nc3ccccc3o2)ccc1O
2. ClCc1cccc(Cn2cnc3c(NC45CC6CC(CC(C6)C4)C5)ncnc32)c1
3. O=C(c1ccccc1)c1ccc2nc3n(c2c1)C(c1c(F)cccc1F)SC3 (stereo not given)
4. CC(=O)C(I(OS(=O)(=O)c1ccc(C)cc1)c1ccccc1)=P(c1ccccc1)(c1ccccc1)c1ccccc1
5. Cc1cc([C@H](C#N)c2nc3ccccc3[nH]2)nc(Cl)n1

A.
1. 75.2 µM
2. 68.2 µM
3. > 81 µM
4. 68.8 µM
5. > 100 µM

====

- System: SNB-19 CNS
- Assay Info: NCI tumour cell line growth inhibition, 48 h
Can you tell me TGI for the items I'm about to list?

Field: example entries. Status: answers known.
Compound	Property Measured	Recorded Value
COc1cc(/C=C(\C#N)c2nc3ccccc3o2)ccc1O	TGI	> 100 µM
CCC(C)C(C(=O)N/N=C1/SCC(=O)N1c1ccccc1)C(=O)N/N=C1/SCC(=O)N1c1ccccc1 (stereo not drawn)	TGI	> 100 µM

We next turn to a different compound, shown below.
Q. Request body: readout TGI, system SNB-19 CNS, query COc1cc(S(=O)(=O)Nc2nc(-c3ccc(N4C(=O)CSC4c4cccs4)cc3)cs2)ccc1Cl (stereo not drawn) . Return the value.
A. > 100 µM

====

Can you tell me GI50 for the items I'm about to list?
- System: EKVX NSCLC
- Assay Info: NCI tumour cell line growth inhibition, 48 h

Field: example entries. Status: answers known.
COc1ccc(/C=N\NC(=O)CN2CCN(c3cc4c(cc3F)c(=O)c(C(=O)N/N=C/c3ccc(OC)c(OC)c3)cn4C3CC3)CC2)cc1OC 6.06 µM
CC(C)c1ccc(C(=O)Nc2nc3ccc(O)cc3s2)cc1 2.34 µM
ClCc1cccc(Cn2cnc3c(NC45CC6CC(CC(C6)C4)C5)ncnc32)c1 18.6 µM

We next turn to a different molecule, shown below.
Q. Requested field: GI50. Item: O=[N+]([O-])c1cc(Cl)c(Cl)c([N+](=O)[O-])c1Cl
A. 2.23 µM

====

- Tested on: UACC-257 melanoma
- Assay Info: NCI tumour cell line growth inhibition, 48 h
Property Measured: TGI

Field: example entries. Status: answers known.
Molecule	Recorded Value
CN(C)C=Nc1cccc2nsnc12	> 100 µM
O=c1c(Oc2ccc(F)cc2F)cc2cnc(NC3CCOCC3)nc2n1C1CCS(=O)(=O)CC1	> 25 µM
CC1=C2[C@@H](CC1)[C@]1(C)O[C@@](C3CCCCC3)(C[C@H]1OC(=O)CO)[C@H]2OC(=O)/C=C/c1ccccc1	26 µM
Cc1ccccc1NC(=O)N/C(N)=N/c1nc(-c2cccc([N+](=O)[O-])c2)cs1	> 100 µM
CCC(Sc1cc(Cl)c(C)cc1S(=O)(=O)Nc1nc(N)nc(N(C)C)n1)C(=O)O (stereo not given)	> 10 µM
CC(=O)c1c(C)[nH]c(-c2nc3ccc(N4CCN(C)CC4)cc3[nH]2)c1-c1ccc(OCC2CCOCC2)cc1	4.42 µM
c1ccc2c(c1)CCC/C2=N\OCC1CO1 (stereo not given)	> 100 µM
CO[C@H]1c2cccc3cccc(c23)[C@@H]1n1[nH]c(=O)n(C(C)(C)C)c1=O	> 100 µM

Each molecule below has a recorded value; state its TGI.
1. O=c1[nH]c(C23CC4CC(CC(C4)C2)C3)cc2c1c(=O)oc1ccccc12
2. CC(C)(C)O/C=C1/C(=O)OC2C[C@@H](O[Si](C)(C)C(C)(C)C)CC12 (stereo not given in full)

A.
1: > 76.2 µM; 2: > 100 µM
